IC50 reference
Molecular target: IRAK4 kinase (Homo sapiens)
Sequence (Q9NWZ3 whole entry): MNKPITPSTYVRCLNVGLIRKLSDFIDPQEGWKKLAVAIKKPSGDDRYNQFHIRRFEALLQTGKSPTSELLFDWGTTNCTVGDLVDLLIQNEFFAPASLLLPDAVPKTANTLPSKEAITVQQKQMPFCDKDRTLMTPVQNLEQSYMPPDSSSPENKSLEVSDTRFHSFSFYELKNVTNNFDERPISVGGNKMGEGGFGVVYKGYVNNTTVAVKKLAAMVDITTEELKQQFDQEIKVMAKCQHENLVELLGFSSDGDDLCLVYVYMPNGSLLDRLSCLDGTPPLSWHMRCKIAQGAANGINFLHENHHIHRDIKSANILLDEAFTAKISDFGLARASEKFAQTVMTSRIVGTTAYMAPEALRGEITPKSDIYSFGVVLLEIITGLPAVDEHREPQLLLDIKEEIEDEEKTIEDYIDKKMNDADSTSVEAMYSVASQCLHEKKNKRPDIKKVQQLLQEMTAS
Outcome measure: IC50 (nM)

1) Cc1cc(-c2nc(C(=O)Nc3cc4cn(CCN5CCC(F)(F)C5)nc4cc3C(C)(C)O)co2)ccn1 : 6.9
2) Cc1cc(-c2nc(C(=O)Nc3cc4oc(N5CCC(C(F)(F)F)CC5)nc4nc3N3CCC(O)C3)co2)ccn1 (centres unmarked) : 26
3) COc1cc2nc(C3CCNCC3)cn2cc1NC(=O)c1coc(-c2ccnc(C)c2)n1 [II-15C] : 6.5
4) COc1cc2nn(C3CCNCC3)cc2cc1NC(=O)c1coc(-c2ccnc(C(F)F)c2)n1 [II-94C] : 8
5) Cc1cc(-c2nc(C(=O)Nc3cc4oc(N5CCN(CC(F)(F)F)CC5)nc4nc3N3CCC(O)C3)co2)ccn1 (centres unmarked) : 44
6) Cc1cc(-c2nc(C(=O)Nc3cc4cn(C5CCNCC5)nc4cc3OC(C)C)co2)ccn1 [II-14C] : 7.5
7) COc1cc2nn(C3CCNCC3)cc2cc1NC(=O)c1coc(-c2ccccc2)n1 : 9.4
8) Cc1cc(-c2nc(C(=O)Nc3cc4cn(CCC5CCNC5=O)nc4cc3C(C)(C)O)co2)ccn1 (centres unmarked) : 11

====

pIC50: −log10 of the molar value.
For reference, pIC50 measured on IRAK4 kinase (Homo sapiens):
Outcome measure: pIC50

1. CC(C)(O)c1cc2nn(C3CC4CCC(C3)N4)cc2cc1NC(=O)c1coc(-c2ccnc(C(F)(F)F)c2)n1 (stereo not drawn) : 7.91
2. Cc1cc(-c2nc(C(=O)Nc3cc4cn(C5CC6CCC(C5)N6)nc4cc3C(C)(C)O)co2)ccn1 (stereo not drawn) : 7.66
3. COc1cc2nn(C3CCNCC3)cc2cc1NC(=O)c1ccn(-c2ccnc(C)c2)n1 [II-11C] : 8.16
4. COc1cc2nn(C3CCNCC3)cc2cc1NC(=O)c1coc(N2CCS(=O)(=O)CC2)n1 : 7.03
5. Cc1cc(-c2nc(C(=O)Nc3cc4cc(CCC(C)(C)O)nn4cc3C(C)(C)O)co2)ccn1 : 7.80
6. Cc1cc(-c2nc(C(=O)Nc3cc4cn(CCC(C)(C)O)nc4cc3C(C)(C)O)co2)ccn1 : 8.29
7. [2H]C([2H])([2H])C(O)(c1cc2nn(CCC(C)(C)O)cc2cc1NC(=O)c1coc(-c2ccnc(C(F)(F)F)c2)n1)C([2H])([2H])[2H] : 8.19
8. COc1cc2nn(C3CCNCC3)cc2cc1NC(=O)c1coc(-c2ccncc2)n1 [II-10C] : 7.60
9. Cc1cc(-c2nc(C(=O)Nc3cc4sc(N5CCOCC5)nc4nc3C(C)(C)O)co2)ccn1 : 8.32

====

Molecular target: FLT3 kinase (Homo sapiens)
Sequence (P36888 564-993): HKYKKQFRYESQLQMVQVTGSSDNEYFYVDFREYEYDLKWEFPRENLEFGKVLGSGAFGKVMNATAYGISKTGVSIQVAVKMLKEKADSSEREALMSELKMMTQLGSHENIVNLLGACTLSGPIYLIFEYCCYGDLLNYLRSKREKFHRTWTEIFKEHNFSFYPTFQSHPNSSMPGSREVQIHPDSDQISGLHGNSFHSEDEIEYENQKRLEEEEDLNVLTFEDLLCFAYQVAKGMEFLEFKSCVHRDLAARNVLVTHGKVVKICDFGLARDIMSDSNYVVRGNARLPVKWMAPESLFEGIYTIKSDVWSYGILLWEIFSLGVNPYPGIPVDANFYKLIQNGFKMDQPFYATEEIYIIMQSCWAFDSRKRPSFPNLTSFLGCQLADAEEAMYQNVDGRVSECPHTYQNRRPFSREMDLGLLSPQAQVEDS
pIC50: −log10 of the molar value.
Label Not satisfied if pIC50 falls below 9; label Satisfied in every other case.

1. COc1cn2nc(C3CCNCC3)cc2cc1NC(=O)c1coc(-c2ccnc(C)c2)n1 [II-3F] : Not satisfied
2. Cc1cc(-c2nc(C(=O)Nc3cc4cn(C5CCC6(CNC6)C5)nc4cc3C(C)(C)O)co2)ccn1 (stereo not drawn) [II-99] : Satisfied
3. COc1cc2nn(CCC3CCNC3=O)cc2cc1NC(=O)c1coc(-c2ccnc(C(F)(F)F)c2)n1 (stereo not drawn) [II-8] : Not satisfied
4. CC(C)(O)c1cc2nn(C3CC4CCC(C3)N4)cc2cc1NC(=O)c1coc(-c2ccnc(C(F)(F)F)c2)n1 (stereo not drawn) [II-118] : Satisfied
5. Cc1cc(-c2nc(C(=O)Nc3cc4cn(CCN5CC6(COC6)C5)nc4cc3C(C)(C)O)co2)ccn1 [II-51] : Satisfied
6. Cc1cc(-c2nc(C(=O)Nc3cc4cn(CC5(F)CNC5)nc4cc3C(C)(C)O)co2)ccn1 [II-108] : Satisfied
7. CC(C)(O)CCn1cc2cc(NC(=O)c3coc(-c4ccnc(C(F)(F)F)c4)n3)c(C(C)(C)O)cc2n1 [II-93] : Not satisfied
8. COc1cc2nn(C3CCS(=O)(=O)CC3)cc2cc1NC(=O)c1coc(-c2ccnc(C)c2)n1 [II-96] : Satisfied
